Just for reference, ChEMBL document CHEMBL1128732 is where these values come from.

# Test system: Rattus norvegicus
# assay.text: The compound was tested for anticonvulsant activity against maximal electroshock-induced seizures after peroral administration in rats
# Format: functional
# applied.conditions: Rattus norvegicus, po
Each entry below lists one item and its recorded ED50 value.
Your answer is read as mg/kg, so omit the unit and give the number.

Guide cases for ED50, answers given:
[[record]]
compound = "CNc1ncnc2c1nnn2Cc1ccccc1F"
units = "mg/kg"
value = 8

[[record]]
compound = "CNc1ncnc2c1cnn2Cc1ccccc1"
units = "mg/kg"
value = 15

[[record]]
compound = "CNc1ncnc2c1ccn2Cc1ccccc1F"
units = "mg/kg"
value = 12

[[record]]
compound = "Nc1ncnc2c1cnn2Cc1ccccc1F"
units = "mg/kg"
value = 14


// below: ED50 requested for another compound
### Prompt // lookup ED50 for CNc1ncnc2c1cnn2Cc1ccccc1F
### Response 8

###

# assay.text: pKa value of the compound
# Format: physicochemical
# maps each entry to its pKa
In your answer, state the number alone without any accompanying words.

[[record]]
compound = "CNc1ncnc2c1ccn2Cc1ccccc1F"
property = "pKa"
value = 5.56

[[record]]
compound = "CNc1ncnc2c1cnn2Cc1ccccc1F"
property = "pKa"
value = 4.4


Would you kindly look at the next entry?
### Prompt Entry under review: CNc1ncnc2c1nnn2Cc1ccccc1F . Reported pKa?
### Response 2.49

###

# assay.text: Partition coefficient (logP)
# Type: physicochemical
# applied.conditions: octanol/water
property: logP
Format: numeric value only, no unit, no commentary.

Observe how each entry below is paired with its result.
[[record]]
compound = "CNc1ncnc2c1ccn2Cc1ccccc1F"
value = 2.11

[[record]]
compound = "CNc1ncnc2c1cnn2Cc1ccccc1F"
value = 1.94


Alright, here's another molecule for you.
### Prompt Recorded logP for CNc1ncnc2c1nnn2Cc1ccccc1F , please?
### Response 2.05

###

# System: Rattus norvegicus
# assay.text: The compound was tested for anticonvulsant activity against maximal electroshock-induced seizures after intraperitoneal administration in rats
# Format: functional
Rule: measured ED50 below 10 mg/kg gets True; anything equal to or greater than 10 mg/kg gets False.

Solved cases below.
[[record]]
compound = "CNc1ncnc2c1ncn2Cc1ccccc1F [BW-A78U]"
assigned_label = "True"

[[record]]
compound = "CN(C)c1ncnc2c1ccn2Cc1ccccc1"
assigned_label = "False"

[[record]]
compound = "Nc1ncnc2c1ncn2Cc1ccccc1F"
assigned_label = "True"


Lab note: next compound to report on.
### Prompt # TODO verify ED50 < 10 mg/kg strictly for this compound: CN(C)c1ncnc2c1ccn2Cc1ccccc1F
### Response False

###

Each item that follows carries a reported ED50.
# System: Rattus norvegicus
# assay.text: The compound was tested for anticonvulsant activity against maximal electroshock-induced seizures after peroral administration in rats
# Type: functional
Report the figure in mg/kg without appending any unit label.

[[record]]
compound = "CN(C)c1ncnc2c1ccn2Cc1ccccc1F"
value = 12

[[record]]
compound = "CNc1ncnc2c1ncn2Cc1ccccc1F [BW-A78U]"
value = 2.5

[[record]]
compound = "Nc1ncnc2c1ncn2Cc1ccccc1F"
value = 12


Shift focus to the following entry.
### Prompt Would you kindly share the measured ED50 for O=C1NC(=O)C(c2ccccc2)(c2ccccc2)N1 ?
### Response 20
